Recorded measurements of melting point, one per entry

CS(=O)(=O)Oc1cc(C=CC(=O)c2ccccc2)cc([N+](=O)[O-])c1OS(C)(=O)=O
181 to 184 °C
CC(C)(Cc1ccc(OCC(=O)O)cc1)NS(=O)(=O)c1ccc(Cl)cc1
177 to 178 °C
COC(=O)c1c(C(F)F)nc(C(F)(F)F)c(C(=O)OC)c1CSC
50.5 to 51.5 °C

query: Find the measured melting point of "Cc1ccc(S(=O)(=O)Oc2ccc(C(=O)c3c(-c4ccccc4)cc4ccccn34)cc2)cc1" and report it.
result: 177 to 178 °C

query: # return recorded melting point for input "c1cc(CN2CCCCC2)cc(OCCCCCNc2nc3ccccc3s2)c1"
result: 140 to 145 °C

query: Please list melting point recorded for the compound CC(C)(C)OC(=O)C1CCN(C(=O)C2CN(c3ccc(C(=N)N)cc3)C(=O)O2)CC1 (configuration not stated)
result: 160 °C

query: Look up and state reported melting point for "CC(=O)On1c(=O)c(=O)[nH]c2cc(C(F)(F)F)c(C#N)cc21"
result: 230 °C

query: In one line, give reported melting point of the entry CC(Cc1ccc(OCc2ccccc2)cc1)NCC(O)c1cc2ccccc2o1 (configuration not stated) .
result: 111 to 122 °C

query: Return reported melting point. Input compound: "O=C(c1ccc(Cl)c([N+](=O)[O-])c1)c1cc2ccccc2o1"
result: 132 °C

query: Respond only with melting point recorded for "COc1ccc2c(OCCN3CCOCC3)c(-c3ccccc3)c(=O)oc2c1"
result: 95 to 96 °C

query: Quote melting point reported for CN(Cc1cccc2c1CN(C1CCC(=O)NC1=O)C2=O)C(=O)CCNC(=O)OC(C)(C)C (configuration not stated) please.
result: 222 to 224 °C

query: Dear colleague, please send me the reported melting point for "CCc1c(C(=O)c2cc(C)cc(C)c2)n(C/C=C/COC)c(=O)[nH]c1=O" when you can.
result: 142 to 143 °C

query: Given "Cc1cc2c3c(c1)c1c(n3CCNC2)CCC1" , respond with its melting point.
result: 168 to 170 °C

query: Tell me melting point reported for "CN1C(=O)CC[C@]2(C)c3ccc(C(=O)OC(c4ccccc4)c4ccccc4)cc3CC[C@@H]12"
result: 130 to 131 °C

query: Report measured melting point; entry is "Nc1ccc2c(c1)c(=O)oc1cccc(O)c12"
result: > 260 °C

query: Return the recorded melting point value; entry: "CCOC(=O)Cc1ccc(-c2nc(COc3ccc(COc4nn(-c5ccccc5)cc4/C=C\c4csc(CC)n4)cc3OC)c(C)o2)cc1"
result: 136 to 137 °C

query: Read the entry "Nc1cc(Cl)ccc1-c1noc(=O)[nH]1" and write its reported melting point.
result: 159 to 161 °C
